experiment: yeast display, Sf9 membrane polyspecificity reagent, FACS + sequencing; frameworks hold sequencing errors
observable: polyreactivity (PSR sort gate)

INSERT INTO assay_data (input_sequence, observable, value) VALUES
  ('QVQLVESGGGLVQAGGSLRLSCAASGSTFSDNAMGWYRQAPGKERELVATINASGGSTYYADSVKGRFTITRDNAKNTVYLQMNSLKPEDTAVYYCAADVYTRFWRVYRFDYWGQGTQVTVSS', 'polyreactivity (PSR sort gate)', 'low polyreactivity'),
  ('QVQLVESGGGLVQAGGSLRLSCAASGRIFSYNAMGWYRQAPGKERELVARINWSSGRTYYADSVKGRFTISRDNAKNTVYLQMNSLKPEDTAVYYCNRVSRGPVGGYYWGQGTQVTVSS', 'polyreactivity (PSR sort gate)', 'high polyreactivity'),
  ('QDQLVESGGGLVQAGGSLRLSCAASGSIFWLNAMGWYRQAPGKERELVAAITTVDSTYYADSVKGRFTISRDNAKNTVYLQMNSLKPEDTAVYYCAASGRQSRYDYWGQGTQVTVSS', 'polyreactivity (PSR sort gate)', 'low polyreactivity'),
  ('QVQLVESGGGLVQAGGSLRLSCAASGSIFTGNAMGWYRQAPGKERELVAAISSTGTTNYADSVKGRFTISRDNAKNTVYLQMNSLKPEDTAVYYCARRWYSTWWYGYWGQGTQVTVSS', 'polyreactivity (PSR sort gate)', 'high polyreactivity'),
  ('QVQLVESGGGLVQAGGSLRLSCAASGYTLADYAMGWYRQAPGKERELVAAISSGGITSYADSVKGRFTISRDNAKNTVYLQMNSLKPEDTAVYYCNAAIVGFTRAYQYDYWGQGTQVTVSS', 'polyreactivity (PSR sort gate)', 'high polyreactivity');

For each of the items listed, what is its polyreactivity (PSR sort gate)?
1. QVQLVESGGGLVQAGGSLRLSCAASGSTFVVYAMGWYRQAPGKEREFVAAITYRGGRTYYADSVKGRFTISRDNAKNTVYLQMNSLKPEDTAVYYCNAPIVRSGYVRSIPAVYYSYYYWGQGTQVTVSS
2. QVQLVESGGGLVQAGGSLRLSCAASGITFSVNAMGWYRQAPGKERELVASISSGGSTNYADSVKGRFTISRDNAKNTVYLQMNSLKPEDTAVYYCAVAYYPHGREGAHFQYGYDYWGQGTQVTVSS
3. QVQLVESGGGLVQAGGSLRLSCAASGRIFYYNAMGWYRPAPGKERELVAAIDWSGGSTYYADSVKGRFTISRDNAKNTVYLQMNSLKPEDTAVYYCNAPFRYVPPEGSGPYDYWGQGTQVTVSS

high polyreactivity
low polyreactivity
low polyreactivity
